- TEST_METHOD_NOTES: chemical genetic growth profiling, strain panel (AID 1159580);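 further: tested at 20 µM; growth read once vehicle control cultures reached saturation at 30 °C; 1 = growth at the plate median or of vehicle wells; lower values mean less growth of the strain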
- CONDITIONS_USED: S. cerevisiae deletion strains, growth OD, locus YOR144C, strain elg1, stronger effect = lower value
Hit rate of the full screen: of about 5,500 compounds, about 2,000 (36%) were called active. Another 18% or so got no clear call; they are omitted. Some of the results follow.
# Lookup of reported normalized growth keyed by entry
Output: the number by itself.

Reference set (5 entries):
INSERT INTO measurements (compound, endpoint_result) VALUES
  ('CC(=O)O[C@H]1CC[C@]2(C)C3C(=O)[C@@H](OC(C)=O)[C@@]4(C)C(C[C@@H]5O[C@]6(CCC(C)CO6)[C@@H](C)[C@@H]54)C3CC[C@H]2C1 (stereo not given in full)', 0.992),
  ('Nc1ccn(C2O[C@H](CO)[C@@H](O)[C@H]2O)c(=O)n1 (stereo not given in full)', 1.01),
  ('CC(=O)O[C@H]1CC[C@]2(C)C3=CC(=O)[C@@]4(C)C(C[C@@H]5OC6(OCC(C)CC6Br)[C@@H](C)[C@@H]54)C3CC[C@H]2C1 (stereo not given in full)', 0.989),
  ('COc1c(Cl)ccc(Cl)c1C(=O)O', 1.01),
  ('CCCCCC1C(=O)CCC1CC(=O)O (stereo not given)', 0.994);

-- ask What value of measured normalized growth is listed for `NNCCc1ccccc1` ?
-- reply 0.987

-- ask Try this compound too: C[C@@H]1CC2C3C[C@H](F)C4=CC(=O)C=C[C@]4(C)[C@@]3(F)[C@@H](O)C[C@]2(C)[C@@]1(O)C(=O)COC(=O)C(C)(C)C (stereo not given in full)
-- reply 1

-- ask // next record COc1c2ccoc2nc2c(OC)c(OCC(O)C(C)(C)O)ccc12 (stereo not given)
-- reply 0.978

-- ask `CCCCC[C@H](CC(=O)NO)C(=O)N[C@H](C(=O)N1CCC[C@H]1CO)C(C)C` ?
-- reply 1.02

-- ask Next record, please: `O=C(O)c1ccccc1C(=O)Nc1ccc(S(=O)(=O)Nc2nccs2)cc1`
-- reply 0.993

----------
- TEST_METHOD_NOTES: chemical genetic growth profiling, strain panel (AID 1159580)
- CONDITIONS_USED: S. cerevisiae deletion strains, growth OD, locus YMR129W, stronger effect = lower value
Hit rate of the full screen: of about 5,500 compounds, about 2,000 (36%) were called active. Another 18% or so got no clear call; they are omitted. This is one part of the list.
Quick reference for normalized growth among some compounds
Answer with a bare number; do not write a unit.

INSERT INTO assay_data (compound, property_name, endpoint_result) VALUES
  ('O=[N+]([O-])c1cccc2cn[nH]c12', 'normalized growth', 0.993),
  ('CC1=C2[C@H]3OC(=O)[C@@H](C)[C@@H]3CC[C@@]2(C)C=CC1=O', 'normalized growth', 0.997),
  ('CN(C)CCC(c1ccc(Br)cc1)c1ccccn1 (stereo not drawn)', 'normalized growth', 0.982),
  ('COC(=O)CCCOc1ccc(Cl)cc1Cl', 'normalized growth', 0.95),
  ('O=C(O)CCCOc1ccc(Cl)cc1Cl', 'normalized growth', 0.944),
  ('CO[C@]12C[C@@H](COC(=O)c3cncc(Br)c3)CN(C)[C@@H]1Cc1cn(C)c3cccc2c13', 'normalized growth', 0.977),
  ('C[C@@H](N)[C@@H](O)c1ccccc1', 'normalized growth', 0.997),
  ('CC(CCC(=O)O)[C@H]1CCC2C3CC[C@@H]4C[C@H](O)CC[C@]4(C)C3C[C@H](O)[C@@]21C (stereo partly drawn)', 'normalized growth', 0.98),
  ('COc1ccc(C(=O)N2CCCC2=O)cc1', 'normalized growth', 0.986),
  ('COc1c(Cl)ccc(Cl)c1C(=O)O', 'normalized growth', 0.987);

-- ask Give its normalized growth value. Item: `COc1c2ccccc2nc2occc12`
-- reply 0.975

-- ask Note, next up: `CN1CCN(C2=Nc3ccccc3Oc3ccc(Cl)cc32)CC1`
-- reply 0.964

-- ask What do you get for `O=c1cc(-c2ccc(O)cc2)oc2cc(O)cc(O)c12` ?
-- reply 0.989

----------
- TEST_METHOD_NOTES: chemical genetic growth profiling, strain panel (AID 1159580)
- CONDITIONS_USED: S. cerevisiae deletion strains, growth OD, locus YLR370C, strain arc18, stronger effect = lower value
Among all 5,500 compounds or so, about 2,000 (36%) were called active. About 18% were inconclusive and are not listed. This is one part of the list.
Recorded normalized growth, one value per entry.
Just the number, please, no unit after it.

Examples with their reported normalized growth follow.
INSERT INTO measurements (compound, endpoint_result) VALUES
  ('CCCCCC1C(=O)CCC1CC(=O)O (centres undefined)', 0.983),
  ('O=c1cc(-c2cc(O)c(O)c(O)c2)oc2cc(O)cc(O)c12', 0.924),
  ('CC(CCC(=O)O)[C@H]1CCC2C3CC[C@@H]4C[C@H](O)CC[C@]4(C)C3C[C@H](O)[C@@]21C (some centres undefined)', 0.972);

-- ask # query: normalized growth of entry `O=c1cc(-c2ccc(O)cc2)oc2cc(O)cc(O)c12`
-- reply 0.981

-- ask Try the compound `O=C(O)CCC(=O)Nc1ccc(S(=O)(=O)Nc2nccs2)cc1`
-- reply 1

-- ask Try this compound next: COC(=O)CCC(C)[C@H]1CCC2C3C(C[C@H](O)[C@@]21C)[C@@]1(C)CC[C@@H](O)C[C@H]1C[C@H]3O (some centres undefined)
-- reply 1.01

-- ask Same read-out for `S=P(N1CC1)(N1CC1)N1CC1` ?
-- reply 1.01

-- ask And then `O=c1cc(-c2ccc(O)cc2)oc2cc(O)ccc12` , what is it?
-- reply 0.948

-- ask Further, for `CC12CC3CC(C)(C1)CC(N)(C3)C2` ?
-- reply 0.995

----------
- TEST_METHOD_NOTES: chemical genetic growth profiling, strain panel (AID 1159580);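 further: tested at 20 µM; growth read once vehicle control cultures reached saturation at 30 °C; 1 = growth at the plate median or of vehicle wells; lower values mean less growth of the strain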
- CONDITIONS_USED: S. cerevisiae deletion strains, growth OD, locus YCL029C, strain bik1
The campaign covered roughly 5,500 compounds. About 2,000 (36%) were called active. Inconclusive results (about 18%) are left out. Cut-off read from the data, not from the text of the source: active = normalized growth mostly below about 0.91 (no sharp cut-off); inconclusive = no clear call, values can overlap the other calls; inactive = mostly above about 0.92. The list shows a part of the results.
Permitted responses: active, inactive

Examples from the recorded data:
INSERT INTO assay_data (compound, class) VALUES
  ('NC(N)=NCCCC(NC(=O)C(N)Cc1ccc(O)cc1)C(=O)O (centres undefined)', 'inactive'),
  ('N[C@@H](Cc1cc(I)c(Oc2ccc(O)c(I)c2)c(I)c1)C(=O)O', 'inactive'),
  ('N[C@@H](Cc1cc(I)c(Oc2cc(I)c(O)c(I)c2)c(I)c1)C(=O)O', 'active');

Please turn your attention to the following entry.
-- ask Status in this test for `NC(N)=NCCC[C@@H](NC(=O)[C@@H](N)Cc1ccc(O)cc1)C(=O)O` ?
-- reply inactive

----------
The reader will find reported normalized growth values listed item by item below.
- TEST_METHOD_NOTES: chemical genetic growth profiling, strain panel (AID 1159580);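 further: tested at 20 µM; growth read once vehicle control cultures reached saturation at 30 °C; 1 = growth at the plate median or of vehicle wells; lower values mean less growth of the strain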
- CONDITIONS_USED: S. cerevisiae deletion strains, growth OD, locus YJR075W, strain HOC1, stronger effect = lower value
In all, about 5,500 compounds went through this assay and about 2,000 (36%) were called active. Not shown: some 18% with an inconclusive outcome. The list shows a part of the results.

A selection of reference data follows.
INSERT INTO assay_data (compound, endpoint_result) VALUES
  ('CC(=O)OCC1=C(C(=O)O)N2C(=O)C(NC(=O)Cc3cccs3)C2SC1 (stereo not drawn)', '0.995 (inactive)'),
  ('N[C@H](Cc1cc(I)c(Oc2ccc(O)c(I)c2)c(I)c1)C(=O)O', '1 (inactive)');

-- ask Would you kindly share the measured normalized growth for `O=C(O)CCCOc1ccc(Cl)cc1Cl` ?
-- reply 0.999 (inactive)

-- ask And for `S=P(N1CC1)(N1CC1)N1CC1` ?
-- reply 1.01 (inactive)

-- ask Also `N[C@@H](Cc1c[nH]c2ccc(O)cc12)C(=O)O` , if possible.
-- reply 1.01 (inactive)

-- ask Now give it for Cc1cc(CN2CC(C)OC(C)C2)cc(C)c1O (stereo not drawn) too.
-- reply 1 (inactive)

-- ask Subsequent entry: `O=C(O)Cc1cc(I)c(Oc2cc(I)c(O)c(I)c2)c(I)c1`
-- reply 1 (inactive)

----------
- TEST_METHOD_NOTES: chemical genetic growth profiling, strain panel (AID 1159580);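 further: tested at 20 µM; growth read once vehicle control cultures reached saturation at 30 °C; 1 = growth at the plate median or of vehicle wells; lower values mean less growth of the strain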
- CONDITIONS_USED: S. cerevisiae deletion strains, growth OD, locus YEL037C, strain rad23, stronger effect = lower value
About 2,000 (36%) of roughly 5,500 compounds were called active. About 18% were inconclusive and are not listed. This is one part of the list.
PROPERTY_NAME: normalized growth
Simply state the number, no unit and no words.

Some solved entries appear below for comparison.
INSERT INTO assay_data (molecule, endpoint_result) VALUES
  ('CN[C@@H]1[C@H](OC2[C@H](O[C@H]3[C@H](O)[C@@H](O)[C@H](N=C(N)N)[C@@H](O)[C@@H]3N=C(N)N)O[C@@H](C)[C@]2(O)C=O)O[C@@H](CO)[C@H](O)[C@H]1O (some centres not stated)', 1),
  ('Nc1ccncc1', 0.989),
  ('c1ccc2nc(N3CCNCC3)ccc2c1', 0.987);

-- ask What value of measured normalized growth is listed for COc1c2ccoc2nc2c(OC)c(OCC(O)C(C)(C)O)ccc12 (configuration not stated) ?
-- reply 1.01

-- ask Now this one: `CC1=C2[C@H]3OC(=O)[C@@H](C)[C@@H]3CC[C@@]2(C)C=CC1=O`
-- reply 0.978

-- ask Ok, now `CCCC(C(=O)OCCN(CC)CC)(c1ccccc1)c1ccccc1`
-- reply 1

-- ask Follow-up item: `CN1CCN(C2=Nc3ccccc3Oc3ccc(Cl)cc32)CC1`
-- reply 0.998

-- ask How about `CN(C(=O)CN(CCO)CC(=O)N(C)C(C)(C)Cc1ccccc1)C(C)(C)Cc1ccccc1` ?
-- reply 1.02

-- ask Item: CC(CCC(=O)O)[C@H]1CCC2C3CC[C@@H]4CCCC[C@]4(C)C3CC[C@@]21C (some centres not stated)
-- reply 0.993

-- ask Now consider `CCN(CCCc1ccccc1)CCCc1ccccc1` .
-- reply 0.984
